target of assay: c-kit (Homo sapiens)
Construct: MO7e (human megakaryocytic leukemia cell line) which had been arrested for 20 hr; endogenous in cells; host or cells: MO7e human megakaryocytic leukemia cell line
test method notes: Inhibitory activity against c-kit autophosphorylation (MO7e cells, h-SCF)
Format: cell-based
particulars: MO7e cells, 50 ng/ml h-SCF; read-out: c-kit IC50
quantity name: IC50 (nM)

Sample records with IC50:
{"compound": "COc1ccc(NC(=O)COc2ccc(Oc3ccnc4cc(OC)c(OC)cc34)cc2)cc1", "IC50, nM": 48}
{"compound": "COc1cc2nccc(Oc3ccc(NC(=O)N[C@H]4CCN(Cc5ccccc5)C4)cc3)c2cc1OC", "IC50, nM": 170}
{"compound": "COc1ccccc1NC(=O)COc1ccc(Oc2ccnc3cc(OC)c(OC)cc23)cc1", "IC50, nM": 386}
{"compound": "COc1cc2ncnc(Oc3ccc(NC(=O)NCCN4CCCC4)c([N+](=O)[O-])c3)c2cc1OC", "IC50, nM": 581}
{"compound": "CCCC(CCN1CCOCC1)OC(=O)Nc1ccc(Oc2ccnc3cc(OC)c(OC)cc23)cc1 (centres unmarked)", "IC50, nM": 250}

A = COc1cc(Oc2ncnc3cc(OC)c(OC)cc23)ccc1NC(=O)NN1CCCCC1
B = CCN(CCNC(=O)Nc1ccc(Oc2ncnc3cc(OC)c(OC)cc23)cc1Cl)c1cccc(C)c1
Out of A and B , name the one with the higher IC50. // caller expects the label of the chosen entry
A
(A: 719 nM, B: 122 nM)

I = COc1cc2nccc(Oc3ccc(NC(=S)NC(=O)Cc4ccccc4Cl)cc3)c2cc1OC
II = COc1cc2nccc(Oc3cc(C)c(NC(=O)OCc4ccccn4)cc3C)c2cc1OC
III = COc1cc(Oc2ncnc3cc(OC)c(OC)cc23)ccc1NC(=O)NCCN1CCCCC1
Sort entries by IC50 from minimum to maximum value. Write out the labels following the order that was asked for.
II, I, III

---

target of assay: c-kit (Homo sapiens, UniProt P10721)
Construct: MO7e (human megakaryocytic leukemia cell line) which had been arrested for 20 hr; endogenous in cells; host or cells: MO7e human megakaryocytic leukemia cell line
Sequence (P10721 26-976): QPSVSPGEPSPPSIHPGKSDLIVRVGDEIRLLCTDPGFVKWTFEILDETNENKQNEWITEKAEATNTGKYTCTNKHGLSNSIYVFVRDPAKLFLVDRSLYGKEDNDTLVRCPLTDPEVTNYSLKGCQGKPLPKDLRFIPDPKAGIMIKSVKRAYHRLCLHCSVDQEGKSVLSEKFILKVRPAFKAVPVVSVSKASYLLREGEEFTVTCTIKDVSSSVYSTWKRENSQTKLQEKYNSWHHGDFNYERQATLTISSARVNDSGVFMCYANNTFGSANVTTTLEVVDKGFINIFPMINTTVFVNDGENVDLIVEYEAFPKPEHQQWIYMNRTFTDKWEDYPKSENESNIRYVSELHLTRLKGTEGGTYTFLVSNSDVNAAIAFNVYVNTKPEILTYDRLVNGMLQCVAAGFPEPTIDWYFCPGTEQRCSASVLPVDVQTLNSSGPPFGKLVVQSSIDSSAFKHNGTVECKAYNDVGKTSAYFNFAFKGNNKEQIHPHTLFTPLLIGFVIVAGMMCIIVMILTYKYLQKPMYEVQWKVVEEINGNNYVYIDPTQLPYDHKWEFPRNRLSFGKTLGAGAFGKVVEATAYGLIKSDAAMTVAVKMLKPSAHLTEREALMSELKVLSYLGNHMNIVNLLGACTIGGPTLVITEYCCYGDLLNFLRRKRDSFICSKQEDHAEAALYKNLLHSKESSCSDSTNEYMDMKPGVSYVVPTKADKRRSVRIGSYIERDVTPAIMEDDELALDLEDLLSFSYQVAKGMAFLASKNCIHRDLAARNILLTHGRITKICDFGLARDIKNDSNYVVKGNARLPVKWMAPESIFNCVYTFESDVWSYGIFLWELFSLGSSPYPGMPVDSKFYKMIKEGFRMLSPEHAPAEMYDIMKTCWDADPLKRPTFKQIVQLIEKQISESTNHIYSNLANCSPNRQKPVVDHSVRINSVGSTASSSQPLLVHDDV
test method notes: Inhibitory activity against c-kit autophosphorylation (MO7e cells, h-SCF)
Format: cell-based
particulars: MO7e cells, h-SCF 50 ng/ml; read-out: c-kit IC50
quantity name: IC50 (nM)

Sample records with IC50:
{"compound": "COc1cc2nccc(Oc3cc(C)c(NC(=O)OCc4ccc5ccccc5c4)cc3C)c2cc1OC", "target of assay": "c-kit (Homo sapiens, UniProt P10721)", "result unit": "nM", "reported value": 243}
{"compound": "COc1cc2ncnc(Oc3ccc(NC(=O)OC(C)c4cccc(Cl)c4)cc3)c2cc1OC (centres unmarked)", "target of assay": "c-kit (Homo sapiens, UniProt P10721)", "result unit": "nM", "reported value": 175}
{"compound": "COc1cc2ncnc(Oc3ccc(NC(=O)OCCCSc4ccc(Cl)cc4C)cc3)c2cc1OC", "target of assay": "c-kit (Homo sapiens, UniProt P10721)", "result unit": "nM", "reported value": 137}
{"compound": "COc1cc2nccc(Oc3ccc(NC(=O)OC(C)c4ccc(C)cc4)c(C)c3C)c2cc1OC (centres unmarked)", "target of assay": "c-kit (Homo sapiens, UniProt P10721)", "result unit": "nM", "reported value": 206}
{"compound": "COc1cc2nccc(Oc3ccc(NC(=O)OCc4ccccc4)cc3)c2cc1OC", "target of assay": "c-kit (Homo sapiens, UniProt P10721)", "result unit": "nM", "reported value": 86}
{"compound": "COc1cc2ncnc(Oc3ccc(NC(=O)OCC4CC4)cc3)c2cc1OC", "target of assay": "c-kit (Homo sapiens, UniProt P10721)", "result unit": "nM", "reported value": 90}

a = COc1cc2nccc(Oc3cc(C)c(NC(=O)OCc4cccc(C)c4)cc3C)c2cc1OC
b = COc1cc2ncnc(Oc3ccc(NC(=O)OCCCOc4ccccc4Cl)c(Cl)c3)c2cc1OC
Please indicate which item has the smaller measured IC50: a versus b // caller expects the label of the chosen entry
b

a = COc1ccc(OC)c(COC(=O)Nc2ccc(Oc3ncnc4cc(OC)c(OC)cc34)cc2)c1
b = COc1cc2nccc(Oc3cc(C)c(NC(=O)OCCCOc4cccc(F)c4)cc3C)c2cc1OC
c = COc1cc2nccc(Oc3ccc(NC(=O)OCCSc4cc(C)ccc4C)cc3)c2cc1OC
Arrange the 3 compounds from largest to smallest IC50. Write out the labels following the order that was asked for.
a, c, b
(a: 451 nM, c: 149 nM, b: 49 nM)

---

target of assay: PDGF-Ra (Homo sapiens)
Construct: host or cells: G-292 human osteosarcoma cells
Sequence (P16234 24-1089): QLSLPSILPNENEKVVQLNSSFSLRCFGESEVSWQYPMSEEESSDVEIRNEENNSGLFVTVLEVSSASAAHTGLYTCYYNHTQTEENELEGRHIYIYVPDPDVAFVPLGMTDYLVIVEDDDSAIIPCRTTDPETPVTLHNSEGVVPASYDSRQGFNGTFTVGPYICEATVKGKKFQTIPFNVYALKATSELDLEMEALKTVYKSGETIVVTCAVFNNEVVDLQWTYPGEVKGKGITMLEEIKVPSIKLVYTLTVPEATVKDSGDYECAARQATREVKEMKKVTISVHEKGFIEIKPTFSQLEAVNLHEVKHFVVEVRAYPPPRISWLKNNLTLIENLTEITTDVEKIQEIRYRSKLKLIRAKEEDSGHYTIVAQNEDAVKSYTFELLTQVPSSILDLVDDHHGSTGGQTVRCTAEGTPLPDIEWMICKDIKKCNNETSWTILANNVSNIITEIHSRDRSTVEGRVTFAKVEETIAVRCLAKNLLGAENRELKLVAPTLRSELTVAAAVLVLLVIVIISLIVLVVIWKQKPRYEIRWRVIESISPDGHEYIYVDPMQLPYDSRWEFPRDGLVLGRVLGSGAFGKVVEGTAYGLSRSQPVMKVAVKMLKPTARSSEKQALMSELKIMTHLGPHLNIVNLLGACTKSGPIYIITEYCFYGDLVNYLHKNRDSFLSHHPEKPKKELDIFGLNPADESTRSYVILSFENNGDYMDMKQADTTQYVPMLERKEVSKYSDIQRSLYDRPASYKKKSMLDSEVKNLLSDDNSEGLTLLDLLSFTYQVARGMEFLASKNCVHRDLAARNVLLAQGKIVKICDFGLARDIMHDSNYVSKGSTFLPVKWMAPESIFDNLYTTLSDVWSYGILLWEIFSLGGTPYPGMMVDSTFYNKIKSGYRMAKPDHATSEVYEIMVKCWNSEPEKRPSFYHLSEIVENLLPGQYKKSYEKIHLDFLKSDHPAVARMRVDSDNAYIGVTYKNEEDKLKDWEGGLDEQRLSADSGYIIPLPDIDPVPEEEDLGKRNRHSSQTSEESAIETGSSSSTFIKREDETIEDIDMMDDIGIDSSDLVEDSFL
test method notes: Inhibitory activity against PDGF-Ra phosphorylation by PDGF-AA stimulation using G292
Assay type: cell-based
particulars: Pharmacological Test Example 1; > means inhibition at indicated concentration not more than 50%, < and << not less than 50%; read-out: PDGF (E) IC50
quantity name: IC50

Sample records with IC50:
{"compound": "COc1cc2nccc(Oc3cc(C)c(NC(=O)OCCCSc4ccc(C)cc4)cc3C)c2cc1OC [Example 39]", "IC50": "< 10 nM"}
{"compound": "COc1cc2nccc(Oc3ccc(NC(=O)OCCCOc4ccc(F)cc4)cc3)c2cc1OC [Example 152]", "IC50": "< 10 nM"}
{"compound": "COc1cc2ncnc(Oc3ccc(NC(=O)OCc4ccc(C)cc4)cc3)c2cc1OC [Example 1]", "IC50": "< 10 nM"}
{"compound": "COc1cc2nccc(Oc3cc(C)c(NC(=O)OC(C)c4ccc(C)cc4)cc3C)c2cc1OC (centres unmarked) [Example 134]", "IC50": "> 100 nM"}
{"compound": "COc1cc2ncnc(Oc3ccc(NC(=O)OC(C)c4cccc(F)c4)cc3)c2cc1OC (centres unmarked) [Example 100]", "IC50": "14 nM"}
{"compound": "COc1cc2nccc(Oc3cc(C)c(NC(=O)Oc4ccc(-c5ccccc5)cc4)cc3C)c2cc1OC [Example 295]", "IC50": "> 100 nM"}

Look up IC50: COc1cc2nccc(Oc3ccc(NC(=O)OC(C)c4ccccc4F)c(C)c3C)c2cc1OC (centres unmarked) [Example 123]
< 10 nM

Look up IC50: COc1cccc(OCCCOC(=O)Nc2ccc(Oc3ccnc4cc(OC)c(OC)cc34)cc2)c1 [Example 161]
< 10 nM

---

target of assay: PDGF-Ra (Homo sapiens)
Construct: host or cells: G-292 human osteosarcoma cells
test method notes: Inhibitory activity against PDGF-Ra phosphorylation by PDGF-AA stimulation using G292
Assay type: cell-based
particulars: Pharmacological Test Example 1; > means inhibition at indicated concentration not more than 50%, < and << not less than 50%; read-out: PDGF (E) IC50
pIC50: −log10 of the molar value.
quantity name: pIC50

Sample records with pIC50:
{"molecule": "COc1cc2nccc(Oc3ccc(NC(=O)OCCSc4cc(C)ccc4C)c(C)c3C)c2cc1OC", "quantity name": "pIC50", "reported value": 7.47}
{"molecule": "CCCC(CC)OC(=O)Nc1cc(C)c(Oc2ccnc3cc(OC)c(OC)cc23)cc1C (stereo not drawn)", "quantity name": "pIC50", "reported value": 7.80}
{"molecule": "COc1cc2nccc(Oc3ccc(NC(=O)OCCOc4cccc(F)c4)c(C)c3C)c2cc1OC", "quantity name": "pIC50", "reported value": 7.74}
{"molecule": "COc1cccc(OCCCOC(=O)Nc2ccc(Oc3ccnc4cc(OC)c(OC)cc34)c(C)c2C)c1 [Example 162]", "quantity name": "pIC50", "reported value": 7.80}

1 = COc1cc2nccc(Oc3cc(C)c(NC(=O)OCC4CC4)cc3C)c2cc1OC
2 = COc1cc2nccc(Oc3cc(C)c(NC(=O)OC4CCCCCC4)cc3C)c2cc1OC
Out of 1 and 2 , name the one with the higher pIC50. // caller expects the label of the chosen entry
2
(2: 7.89, 1: 7.18)

I = COc1cc2nccc(Oc3ccc(NC(=O)OC(c4ccccc4)C(C)C)cc3)c2cc1OC (stereo not drawn)
II = COc1cc2nccc(Oc3ccc(NC(=O)OCCOc4cccc(F)c4)cc3)c2cc1OC
Out of I and II , name the one with the higher pIC50. // caller expects the label of the chosen entry
II

I = COc1cc2ncnc(Oc3ccc(NC(=O)OCC4CCC4)cc3)c2cc1OC
II = COc1cc2nccc(Oc3cc(C)c(NC(=O)OCCCSc4cc(C)ccc4C)cc3C)c2cc1OC
III = COc1cc2nccc(Oc3ccc(NC(=O)OC(C)c4cccc(N(C)C)c4)cc3)c2cc1OC (stereo not drawn)
IV = COc1cc2nccc(Oc3cc(C)c(NC(=O)OC(C)C)cc3C)c2cc1OC
Sort entries by pIC50 from minimum to maximum value. Write out the labels following the order that was asked for.
IV, III, II, I

a = COc1cc2nccc(Oc3cc(C)c(NC(=O)OC(C)c4cccc(Cl)c4)cc3C)c2cc1OC (stereo not drawn)
b = COc1cc2ncnc(Oc3ccc(NC(=O)OCc4ccccc4Cl)c(Cl)c3)c2cc1OC
c = COc1cc2nccc(Oc3ccc(NC(=O)OC(c4ccccc4)C(C)C)c(C)c3C)c2cc1OC (stereo not drawn)
Sort entries by pIC50 from minimum to maximum value. Write out the labels following the order that was asked for.
c, a, b
